Each entry below carries its recorded pKi.
- EXPERIMENTAL TARGET: Sodium-dependent dopamine transporter (Rattus norvegicus)
- Sequence (P23977 whole entry): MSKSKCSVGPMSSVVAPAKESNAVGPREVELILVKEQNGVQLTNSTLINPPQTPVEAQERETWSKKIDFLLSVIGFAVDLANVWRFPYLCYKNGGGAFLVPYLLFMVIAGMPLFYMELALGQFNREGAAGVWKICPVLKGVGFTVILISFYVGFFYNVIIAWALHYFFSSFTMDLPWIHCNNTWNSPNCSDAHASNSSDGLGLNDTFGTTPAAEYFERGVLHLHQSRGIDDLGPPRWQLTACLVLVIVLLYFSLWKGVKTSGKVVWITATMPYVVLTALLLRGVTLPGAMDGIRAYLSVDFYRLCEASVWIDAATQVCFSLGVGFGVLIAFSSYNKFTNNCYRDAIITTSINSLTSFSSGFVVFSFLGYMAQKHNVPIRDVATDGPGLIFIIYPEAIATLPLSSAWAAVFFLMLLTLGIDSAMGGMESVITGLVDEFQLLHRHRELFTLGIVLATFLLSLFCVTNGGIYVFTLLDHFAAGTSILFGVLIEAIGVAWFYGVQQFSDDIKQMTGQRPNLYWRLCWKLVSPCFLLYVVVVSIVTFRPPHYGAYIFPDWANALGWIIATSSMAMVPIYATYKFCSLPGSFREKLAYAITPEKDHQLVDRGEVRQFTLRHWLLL
- TEST METHOD NOTES: Inhibition of high affinity uptake by the dopamine transporter from rat synaptosomal nerve endings by using [3H]DA as radioligand
Worth noting: pKi values are minus log10 of concentrations stated in mol/L.

Some solved cases for reference:
> print(dat)
                                   molecule                       experimental.target  attribute.measured   val
1  COC(=O)CSCC1CN(C)CCC1c1ccc(Cl)cc1 (stereo unspecified)  Sodium-dependent dopamine transporter (Rattus norvegicus)                 pKi  7.10
2  CN1CCC(c2ccc(Cl)cc2)C(C[S+]([O-])CCO)C1 (stereo unspecified)  Sodium-dependent dopamine transporter (Rattus norvegicus)                 pKi  7.92
3  CC(=O)OCC[S+]([O-])CC1CN(C)CCC1c1ccc(Cl)cc1 (stereo unspecified)  Sodium-dependent dopamine transporter (Rattus norvegicus)                 pKi  8.05
4  COC(=O)CSCC1CNCCC1c1ccc(Cl)cc1 (stereo unspecified)  Sodium-dependent dopamine transporter (Rattus norvegicus)                 pKi  7.29
5  COCCSCC1CN(C)CCC1c1ccc(Cl)cc1 (stereo unspecified)  Sodium-dependent dopamine transporter (Rattus norvegicus)                 pKi  7.30

Qu. Given the molecule CN1CCC(c2ccc(Cl)cc2)C(CSCC(N)=O)C1 (stereo unspecified) , what is its reported pKi?
Ans. 6.80

---

- EXPERIMENTAL TARGET: Norepinephrine transporter (Rattus norvegicus, UniProt Q9WTR4)
- Sequence (Q9WTR4 whole entry): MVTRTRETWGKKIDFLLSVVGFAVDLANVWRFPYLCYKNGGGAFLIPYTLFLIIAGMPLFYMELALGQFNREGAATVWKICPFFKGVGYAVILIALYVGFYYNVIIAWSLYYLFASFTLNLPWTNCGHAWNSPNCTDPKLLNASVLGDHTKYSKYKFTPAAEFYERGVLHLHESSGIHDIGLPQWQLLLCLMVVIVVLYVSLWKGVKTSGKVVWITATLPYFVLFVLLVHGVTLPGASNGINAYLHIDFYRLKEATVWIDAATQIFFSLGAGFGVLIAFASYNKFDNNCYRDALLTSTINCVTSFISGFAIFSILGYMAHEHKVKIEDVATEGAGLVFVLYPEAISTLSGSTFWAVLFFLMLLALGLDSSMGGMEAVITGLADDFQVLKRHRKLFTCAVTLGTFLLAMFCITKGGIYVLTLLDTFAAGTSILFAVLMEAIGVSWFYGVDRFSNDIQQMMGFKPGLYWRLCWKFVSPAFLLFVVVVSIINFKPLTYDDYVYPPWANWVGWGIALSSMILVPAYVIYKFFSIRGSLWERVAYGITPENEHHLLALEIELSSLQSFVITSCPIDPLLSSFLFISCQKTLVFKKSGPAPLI
- TEST METHOD NOTES: Inhibition of high affinity uptake by the norepinephrine transporter from rat synaptosomal nerve endings by using [3H]NE as radioligand
ATTRIBUTE MEASURED: pKi
Worth noting: pKi values are minus log10 of concentrations stated in mol/L.

Qu. Given the molecule CN1CCC(c2ccc(Cl)cc2)C(C[S+]([O-])CC(=O)N(C)C)C1 (configuration not stated) , what is its reported pKi?
Ans. 5.90

Qu. Given the molecule COCCSCC1CN(C)CCC1c1ccc(Cl)cc1 (configuration not stated) , what is its reported pKi?
Ans. 8.22

Qu. Given the molecule CC(=O)OCCSCC1CN(C)CCC1c1ccc(Cl)cc1 (configuration not stated) , what is its reported pKi?
Ans. 8.44

Qu. Given the molecule CN1CCC(c2ccc(Cl)cc2)C(C[S+]([O-])CC(=O)N2CCCCC2)C1 (configuration not stated) , what is its reported pKi?
Ans. 6.34

Qu. Given the molecule COCC[S+]([O-])CC1CN(C)CCC1c1ccc(Cl)cc1 (configuration not stated) , what is its reported pKi?
Ans. 7.60

---

- EXPERIMENTAL TARGET: Norepinephrine transporter (Rattus norvegicus, UniProt Q9WTR4)
- TEST METHOD NOTES: Inhibition of high affinity uptake by the norepinephrine transporter from rat synaptosomal nerve endings by using [3H]NE as radioligand
just bin them by Ki: lo = under 20 nM, mid = from 20 nM up to 30 nM, hi = 30 nM and over

> print(dat)
                                   compound                       experimental.target  class.assignment
1  COC(=O)C1CN(C)CCC1c1ccc(Cl)cc1 (stereo unspecified)  Norepinephrine transporter (Rattus norvegicus, UniProt Q9WTR4)                hi
2  CN1CCC(c2ccc(Cl)cc2)C(CSCC(=O)NO)C1 (stereo unspecified)  Norepinephrine transporter (Rattus norvegicus, UniProt Q9WTR4)                lo
3  NC(=O)CSCC1CNCCC1c1ccc(Cl)cc1 (stereo unspecified)  Norepinephrine transporter (Rattus norvegicus, UniProt Q9WTR4)                lo
4  CN1CCC(c2ccc(Cl)cc2)C(C[S+]([O-])CCOC(=O)c2ccccc2)C1 (stereo unspecified)  Norepinephrine transporter (Rattus norvegicus, UniProt Q9WTR4)                lo
5  CN1CCC(c2ccc(Cl)cc2)C(CSCCOC(=O)c2ccccc2)C1 (stereo unspecified)  Norepinephrine transporter (Rattus norvegicus, UniProt Q9WTR4)                lo

Qu. Classify this compound: CC(=O)OCC[S+]([O-])CC1CN(C)CCC1c1ccc(Cl)cc1 (stereo unspecified)
Ans. mid

Qu. Classify this compound: Cc1noc(CSCC2CN(C)CCC2c2ccc(Cl)cc2)n1 (stereo unspecified)
Ans. hi

Qu. Classify this compound: COC(=O)CSCC1CN(C)CCC1c1ccc(Cl)cc1 (stereo unspecified)
Ans. mid

Qu. Classify this compound: CNC(=O)C[S+]([O-])CC1CN(C)CCC1c1ccc(Cl)cc1 (stereo unspecified)
Ans. hi

Qu. Classify this compound: CN1CCC(c2ccc(Cl)cc2)C(CSCC(=O)N2CCCCC2)C1 (stereo unspecified)
Ans. lo
